Attribute: Microsomal Stability Rat QH
assay type: in vitro ADME, Rat; details: Rat
*1 amine or outer side, *2 acyl side, *3 side chain or, on linkers, in order; H or OH if unused. Where a SMILES comes first, the peptide text is derived from it. [ ]: non-standard residue; d: D form. Trp(1-(1,1-Me2-allyl)) = C=CC(C)(C)n1cc(C[C@H](N)C(=O)O)c2ccccc21; Ala(3R-Me,3-isobutenyl) = CC(C)=C[C@@H](C)[C@H](N)C(=O)O; X2 = C#CCn1cc(C[C@@H](C(=O)[*:2])N(C)[*:1])c2ccccc21; NMeLeu(5-OH,4R) = CN[C@@H](C[C@@H](C)CO)C(=O)O; Phe(βR-OMe) = CO[C@H](c1ccccc1)[C@H](N)C(=O)O; NMeL = CN[C@@H](CC(C)C)C(=O)O

// solved cases for Microsomal Stability Rat QH follow
>>> experimental_result("C=CC(C)(C)n1cc(C[C@@H]2NC(=O)[C@H]([C@H](C)C=C(C)C)NC(=O)[C@H](CC(C)C)N(C)C(=O)[C@H](C(C)C)NC(=O)[C@H]([C@H](OC)c3ccccc3)NC(=O)[C@H](C)NC(=O)[C@H](C[C@@H](C)CO)N(C)C2=O)c2ccccc21 [dCymC] (cyclo([Trp(1-(1,1-Me2-allyl))][NMeLeu(5-OH,4R)]A[Phe(βR-OMe)]V[NMeL][Ala(3R-Me,3-isobutenyl)]))")
"38.300%"
>>> experimental_result("C#CCn1cc(C[C@H]2C(=O)N(C)[C@@H](C[C@@H](C)CO)C(=O)N[C@@H](C)C(=O)N[C@@H]([C@H](OC)c3ccccc3)C(=O)N[C@@H](C(C)C)C(=O)N(C)[C@@H](CC(C)C)C(=O)N[C@@H](C(C)C)C(=O)N2C)c2ccccc21 [Compound 26] (cyclo(A[Phe(βR-OMe)]V[NMeL]V[X2][NMeLeu(5-OH,4R)]))")
">87.900%"

Next, consider the following compound.
Kindly note the recorded Microsomal Stability Rat QH for `CO[C@H](c1ccccc1)[C@@H]1NC(=O)[C@H](C)NC(=O)[C@H](C[C@@H](C)CO)N(C)C(=O)[C@H](Cc2cn(C)c3ccccc23)NC(=O)[C@H](Cc2cn(CCOCCOCCn3cc(C[C@@H]4NC(=O)[C@H](CC(C)C)N(C)C(=O)[C@H](C(C)C)NC(=O)[C@H]([C@H](OC)c5ccccc5)NC(=O)[C@H](C)NC(=O)[C@H](C[C@@H](C)CO)N(C)C(=O)[C@H](Cc5cn(C)c6ccccc56)NC4=O)nn3)nn2)NC(=O)[C@H](CC(C)C)N(C)C(=O)[C@H](C(C)C)NC1=O` , which is <23.1%
